# Study Target: GPNMB-V5His (recombinant human GPNMB extracellular domain with C-terminal V5-His tag) (human) (UniProt Q14956)
# Test Description: SPR (Biacore), mAb on protein A, GPNMB 880 nM
Endpoint Label: pKd
# reply with the number alone; pKd is -log10 of concentration in mol/L

Q) Name the recorded pKd for 1.7.3 (antibody, V domains shown) VH: QVQLQESGPGLVKPSQTLSLTCTVSGGSISSANYYWTWIRQHPGKGLEWIGYIYYSGSTYCNPSLKSRVIISVDTSKNQFSLKLSSVTAADTAVYYCARGYNWNYFDYWGQGTLVTVSS VL: DIVMTQSPATLSVSPGERATLSCRASQSVSSNLAWYQERPGQAPRLLIYGASTRATGIPARFSGSGSGTEFTLTISSLQSEDFAVYYCQQYNKWPPWTFGQGTKVEIER .
A) 6.92
